Target: MAP/microtubule affinity-regulating kinase 3 (Homo sapiens); also: in the data inactive means no Kd found up to 30 µM
Sequence (P27448 whole entry): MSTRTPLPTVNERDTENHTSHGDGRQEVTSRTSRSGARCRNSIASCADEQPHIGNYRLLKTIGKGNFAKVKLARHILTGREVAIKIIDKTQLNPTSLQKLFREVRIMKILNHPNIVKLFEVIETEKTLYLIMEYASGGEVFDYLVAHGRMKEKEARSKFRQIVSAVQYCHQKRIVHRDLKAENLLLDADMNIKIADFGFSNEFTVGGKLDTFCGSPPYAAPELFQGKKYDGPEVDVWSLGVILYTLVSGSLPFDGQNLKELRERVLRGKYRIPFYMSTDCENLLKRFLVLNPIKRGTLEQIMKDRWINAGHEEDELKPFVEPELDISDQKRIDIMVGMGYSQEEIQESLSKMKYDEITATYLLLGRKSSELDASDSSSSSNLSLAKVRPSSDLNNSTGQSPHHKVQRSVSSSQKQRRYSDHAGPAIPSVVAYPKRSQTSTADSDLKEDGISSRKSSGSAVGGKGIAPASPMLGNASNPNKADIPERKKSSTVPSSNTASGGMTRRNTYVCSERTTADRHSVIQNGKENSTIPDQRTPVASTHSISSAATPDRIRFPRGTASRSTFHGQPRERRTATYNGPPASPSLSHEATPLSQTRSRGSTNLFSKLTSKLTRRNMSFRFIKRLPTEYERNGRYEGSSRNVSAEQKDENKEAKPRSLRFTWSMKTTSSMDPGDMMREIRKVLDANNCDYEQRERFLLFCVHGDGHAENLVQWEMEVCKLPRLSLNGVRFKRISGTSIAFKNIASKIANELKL
Active and inactive are the calls of the source.
Possible outcomes: active, inactive

>>> print(df.to_string())
                                   compound  category_label
0  O=C1NC(=O)[C@@H](c2cn3c4c(cccc24)CCC3)[C@@H]1c1c[nH]c2ccccc12 [TIVANTINIB]        inactive
1  Cc1nc2cc(-c3nn(C(C)C)c4ncnc(N)c34)ccc2o1        inactive
2  Cc1nc(Nc2n[nH]c3c2CN(C(=O)N[C@H](CN(C)C)c2ccccc2)C3(C)C)c2sccc2n1          active
3  Nc1ncnc2c1c(-c1cccc(OCc3ccccc3)c1)cn2[C@H]1C[C@@H](CN2CCC2)C1        inactive
